- measured-target: T1, IGSF8 extracellular domain (ED) (Homo sapiens (Human), UniProt Q969P0 28-579)
- T1 construct: also called IGSF8 ECD
- T1 sequence: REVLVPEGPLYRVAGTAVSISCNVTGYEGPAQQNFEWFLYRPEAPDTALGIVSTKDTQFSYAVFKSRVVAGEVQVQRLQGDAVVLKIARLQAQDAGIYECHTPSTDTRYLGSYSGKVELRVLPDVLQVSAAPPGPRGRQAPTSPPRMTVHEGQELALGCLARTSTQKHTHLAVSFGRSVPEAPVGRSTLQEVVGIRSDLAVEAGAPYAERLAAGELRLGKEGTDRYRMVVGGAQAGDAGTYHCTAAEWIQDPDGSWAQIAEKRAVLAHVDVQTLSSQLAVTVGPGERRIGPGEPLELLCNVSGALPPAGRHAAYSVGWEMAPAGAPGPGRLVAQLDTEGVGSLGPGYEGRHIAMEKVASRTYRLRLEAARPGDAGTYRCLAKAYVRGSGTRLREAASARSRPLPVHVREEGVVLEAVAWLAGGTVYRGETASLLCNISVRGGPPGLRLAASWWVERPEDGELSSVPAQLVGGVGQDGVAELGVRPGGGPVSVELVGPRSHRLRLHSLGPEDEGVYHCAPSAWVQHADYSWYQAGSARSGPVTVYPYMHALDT
- assay-summary: ELISA on IGSF8 extracellular domain

{"columns": ["binder", "binding result"],
 "data": [
  ["Antibody C11 (antibody, V domains shown, also called anti-IGSF8 C11) VH: EVQLVESGGGLVQPGGSLRLSCAASGFTFSRYRMYWVRQAPGKGLEWVSSISSSGGRTKYADSVKGRFTISRDNSKNTLYLQMNSLRAEDTAVYYCARGVRYCSSPSCSRGPRYAMDVWGKGTTVTVSS VL: DIQMTQSPSSLSASVGDRVTITCRASYVIRNDLSWYQQKPGKAPKLLIYGTSSLHNGVPSRFSGSGYGTYFTLTISSLQPEDFGTYYCLQDDKYPLTFGGGTKVEIKR", "binds"],
  ["Antibody C1 (antibody, V domains shown, also called anti-IGSF8 C1) VH: QVQLLQSGGGLVQPGGSLRLSCAASGFTFSRYRMSWVRQAPGKGLEWVSRISRSGGATAYADSVKGRFTISRDNSKNTLYLQMNSLRAEDTAVYYCARDATGRHYNGMDVWGRGTLVTVSS VL: EIALTQSPSSLSASVGDRVTITCRASQTITRHLNWFQQKPGKAPNLLIHGTSALQTGVPPRFSGGGSGTDFTLTINSLQPEDFGTYYCQQSHTKPWTFGPGTKVEIKR", "binds"]
]}
